# Test System: Cytochrome P450 1A2 (Homo sapiens)
# Assay Protocol: Cytochrome P450 Family 1 Subfamily A Member 2 (CYP1A2) small molecule antagonists: luciferase reporter qHTS assay (AID 1671199); further: nearly all actives have a fitted effect of over 50% in size
# Test Conditions: P450-Glo CYP1A2 enzyme, luciferin luminescence, 1 h; series mostly up to 115 µM
Results filed as inconclusive are left out. Calls of active or inactive are those of the source. The call rests on the fitted dose curve; in most records, active means well fitted inhibition curve with a large enough effect in the repeat runs; inconclusive means weak or mixed curves; inactive means no such curve, though single readings can be large or run the other way.
The categories you may choose from are active, inactive

Query: What call does the record list for CCC1(C2=NCCN2)Cc2ccccc2O1 (configuration not stated) ?
Result: inactive

Query: What call does the record list for O=C(Cc1ccccc1)OCCc1ccccc1 ?
Result: active

Query: What call does the record list for N#CC(C#N)=C(C#N)C#N ?
Result: active

Query: What call does the record list for OCCCl ?
Result: inactive

Query: What call does the record list for CC[N+]1(C)CCCC(OC(=O)C(O)(c2ccccc2)c2ccccc2)C1 (configuration not stated) ?
Result: inactive

Query: What call does the record list for CC1(C)CC(=O)CC(C)(C)N1[O] ?
Result: inactive

Query: What call does the record list for Clc1ccccc1 ?
Result: inactive

Query: What call does the record list for C=CCc1ccc(OC(=O)Cc2ccccc2)c(OC)c1 ?
Result: active

Query: What call does the record list for C=CCc1ccccc1O ?
Result: active

Query: What call does the record list for Nc1ccccc1C(=O)OCC(O)CO (configuration not stated) ?
Result: inactive

Query: What call does the record list for C1CS1 ?
Result: active

Query: What call does the record list for C[C@]12C=CC3=C4CCC(=O)C=C4CC[C@H]3[C@@H]1CC[C@@H]2O ?
Result: active

Source of measurements: PubChem BioAssay (Tox21)
